- Tested on: human hepatocytes
- EXPERIMENT_NOTES: 4-ABP- and HAA-DNA adduct formation in freshly cultured human hepatocytes
- RUN_PARAMETERS: human hepatocytes donor HH H; carcinogen 10 μM; 24 h incubation
MEASURED_PROPERTY: DNA adduct formation, Adducts per 10^7 Bases (Adducts per 10^7 Bases)

{"STRUCTURE_SMILES": "Cc1cnc2ccc3c(nc(Nc4nc5c(=O)[nH]c(N)nc5n4[C@H]4C[C@H](O)[C@@H](CO)O4)n3C)c2n1", "UNIT_OF_MEASURE": "Adducts per 10^7 Bases", "REPORTED_RESULT": 5.1}
{"STRUCTURE_SMILES": "Nc1nc2c(nc(Nc3ccc4c(n3)[nH]c3ccccc34)n2[C@H]2C[C@H](O)[C@@H](CO)O2)c(=O)[nH]1", "UNIT_OF_MEASURE": "Adducts per 10^7 Bases", "REPORTED_RESULT": 31.4}
{"STRUCTURE_SMILES": "Cn1c(Nc2nc3c(=O)[nH]c(N)nc3n2[C@H]2C[C@H](O)[C@@H](CO)O2)nc2c3cccnc3ccc21", "UNIT_OF_MEASURE": "Adducts per 10^7 Bases", "REPORTED_RESULT": 7.0}
{"STRUCTURE_SMILES": "Cn1c(Nc2nc3c(=O)[nH]c(N)nc3n2[C@H]2C[C@H](O)[C@@H](CO)O2)nc2ncc(-c3ccccc3)cc21", "UNIT_OF_MEASURE": "Adducts per 10^7 Bases", "REPORTED_RESULT": 6.0}
{"STRUCTURE_SMILES": "Nc1nc2c(nc(Nc3ccc(-c4ccccc4)cc3)n2[C@H]2C[C@H](O)[C@@H](CO)O2)c(=O)[nH]1", "UNIT_OF_MEASURE": "Adducts per 10^7 Bases", "REPORTED_RESULT": 70.0}

* * *

- Test system: human hepatocytes
- EXPERIMENT_NOTES: 4-ABP- and HAA-DNA adduct formation in freshly cultured human hepatocytes
- RUN_PARAMETERS: human hepatocytes donor HH D; carcinogen 10 μM; 24 h incubation
MEASURED_PROPERTY: DNA adduct formation, Adducts per 10^7 Bases (Adducts per 10^7 Bases)

{"MOLECULE": "Cn1c(Nc2nc3c(=O)[nH]c(N)nc3n2[C@H]2C[C@H](O)[C@@H](CO)O2)nc2ncc(-c3ccccc3)cc21 [dG-C8-PhIP, N-(deoxyguanosin-8-yl)-PhIP]", "UNIT_OF_MEASURE": "Adducts per 10^7 Bases", "REPORTED_RESULT": 7.7}
{"MOLECULE": "Nc1nc2c(nc(Nc3ccc(-c4ccccc4)cc3)n2[C@H]2C[C@H](O)[C@@H](CO)O2)c(=O)[nH]1 [dG-C8-4-ABP, N-(Deoxyguanosin-8-yl)-4-aminobiphenyl]", "UNIT_OF_MEASURE": "Adducts per 10^7 Bases", "REPORTED_RESULT": 100}
{"MOLECULE": "Cc1cnc2ccc3c(nc(Nc4nc5c(=O)[nH]c(N)nc5n4[C@H]4C[C@H](O)[C@@H](CO)O4)n3C)c2n1 [dG-C8-MeIQx, N-(deoxyguanosin-8-yl)-MeIQx]", "UNIT_OF_MEASURE": "Adducts per 10^7 Bases", "REPORTED_RESULT": 12.2}
{"MOLECULE": "Nc1nc2c(nc(Nc3ccc4c(n3)[nH]c3ccccc34)n2[C@H]2C[C@H](O)[C@@H](CO)O2)c(=O)[nH]1 [dG-C8-AαC, N-(Deoxyguanosin-8-yl)-AαC]", "UNIT_OF_MEASURE": "Adducts per 10^7 Bases", "REPORTED_RESULT": 109}
{"MOLECULE": "Cn1c(Nc2nc3c(=O)[nH]c(N)nc3n2[C@H]2C[C@H](O)[C@@H](CO)O2)nc2c3cccnc3ccc21 [dG-C8-IQ, N-(deoxyguanosin-8-yl)-IQ]", "UNIT_OF_MEASURE": "Adducts per 10^7 Bases", "REPORTED_RESULT": 26.2}
